# test system: ABL P210WT BAF3 cells (Homo sapiens)
# Construct: ABL P210WT BAF3; fused on or other part: P11274 (Breakpoint cluster region protein)
# measurement notes: 96-well XTT cell survival assay, BaF3 ABL P210WT
# Type: cell-based
# particulars: ABL P210 WT, 72 hours, read-out: CELL BIO ABL P210WT BAF3 XTT (IC50)
# Method: MV4-11 and THP cells were maintained in Iscove's Modified Dulbecco's Medium supplemented with 10% fetal bovine serum (FBS) and penicillin/streptomycin, Ba/F3 cells were maintained in RPMI 1640 supplemented with 10% FBS, penicillin/streptomycin and 5 ng/ml recombinant mouse IL-3. Compounds were tested in the following assays in duplicate. […]
metric name: GI50

[[record]]
molecule = "COc1ccc(F)cc1-c1c[nH]c2ncc(-c3cnc(N)c(C(=O)N(C)C)n3)c(Cl)c12"
test_system = "ABL P210WT BAF3 cells (Homo sapiens)"
result = "< 10 nM"

[[record]]
molecule = "CNc1ncccc1-c1c[nH]c2ncc(-c3cncc(C(O)C(=O)N(C)C)c3)c(Cl)c12 (stereo not drawn)"
test_system = "ABL P210WT BAF3 cells (Homo sapiens)"
result = "> 1000 nM"

[[record]]
molecule = "CCN(C)C(=O)c1cc(-c2cnc3[nH]cc(-c4cccc(F)c4)c3c2Cl)cnc1N"
test_system = "ABL P210WT BAF3 cells (Homo sapiens)"
result = "10 to 100 nM"

[[record]]
molecule = "OC(c1cncc(-c2cnc3[nH]cc(-c4cccc(F)c4F)c3c2Cl)c1)c1ncccc1F (stereo not drawn)"
test_system = "ABL P210WT BAF3 cells (Homo sapiens)"
result = "100 to 1000 nM"

[[record]]
molecule = "COc1ccccc1-c1c[nH]c2ncc(-c3cncc(C(O)C(=O)N(C)C)c3)c(C)c12 (stereo not drawn)"
test_system = "ABL P210WT BAF3 cells (Homo sapiens)"
result = "10 to 100 nM"

[[record]]
molecule = "CN(C)C(=O)c1cc(-c2cnc3[nH]cc(-c4cc[nH]n4)c3c2Cl)cnc1N"
test_system = "ABL P210WT BAF3 cells (Homo sapiens)"
result = "> 1000 nM"

[[record]]
molecule = "COc1ccc(F)cc1-c1c[nH]c2ncc(-c3cncc(C(O)c4ncccc4F)c3)c(Cl)c12 (stereo not drawn)"
test_system = "ABL P210WT BAF3 cells (Homo sapiens)"
result = "< 10 nM"

[[record]]
molecule = "CN(C)C(=O)c1cncc(-c2cnc3[nH]cc(-c4cccc(F)c4F)c3c2Cl)c1"
test_system = "ABL P210WT BAF3 cells (Homo sapiens)"
result = "100 to 1000 nM"

[[record]]
molecule = "OC(c1cncc(-c2cnc3[nH]cc(-c4cccc(F)c4F)c3c2Cl)c1)C1CC1 (stereo not drawn)"
test_system = "ABL P210WT BAF3 cells (Homo sapiens)"
result = "100 to 1000 nM"


----------
# test system: ABL T315I BAF3 cells (Homo sapiens, UniProt P00519, T315I, cells depend on it)
# Construct: ABL T315I BAF3; fused on or other part: P11274 (Breakpoint cluster region protein)
# measurement notes: 96-well XTT cell survival assay, BaF3 ABL T315I
# Type: cell-based
# particulars: 72 hours, read-out: CELL BIO ABL T315I BAF3 XTT (IC50)
metric name: GI50

[[record]]
molecule = "CN(C)C(=O)c1cc(-c2cnc3[nH]cc(-c4cc(F)ccc4Cl)c3c2Cl)cnc1N"
result = "0.1 to 1 µM"

[[record]]
molecule = "Nc1ncc(-c2cnc3[nH]cc(-c4cc(F)ccc4F)c3c2Cl)cc1C(=O)N1CCCC1CO (stereo not drawn)"
result = "0.1 to 1 µM"

[[record]]
molecule = "COc1ccc(F)cc1-c1c[nH]c2ncc(-c3cnc(N)c(C(=O)N(C)C)n3)c(Cl)c12"
result = "0.01 to 0.1 µM"

[[record]]
molecule = "COc1ccccc1-c1c[nH]c2ncc(-c3cncc(C(O)C(=O)N(C)C)c3)c(C)c12 (stereo not drawn)"
result = "0.01 to 0.1 µM"

[[record]]
molecule = "OC(c1cncc(-c2cnc3[nH]cc(-c4ccccc4)c3c2Cl)c1)c1ncccc1F (stereo not drawn)"
result = "0.1 to 1 µM"

[[record]]
molecule = "COc1cnccc1-c1c[nH]c2ncc(-c3cncc(C(O)C(=O)N(C)C)c3)c(Cl)c12 (stereo not drawn)"
result = "> 1 µM"

[[record]]
molecule = "Cn1nccc1C(O)c1cncc(-c2cnc3[nH]cc(-c4ccccc4F)c3c2Cl)c1 (stereo not drawn)"
result = "> 1 µM"

[[record]]
molecule = "COc1ccc(F)cc1-c1c[nH]c2ncc(-c3cncc(C(=O)N(C)C)n3)c(Cl)c12"
result = "0.01 to 0.1 µM"

[[record]]
molecule = "CN(C)C1CCN(C(=O)c2cc(-c3cnc4[nH]cc(-c5cc(F)ccc5F)c4c3Cl)cnc2N)C1 (stereo not drawn)"
result = "0.1 to 1 µM"

